System: Escherichia coli
Assay: Inhibition of Escherichia coli DNA gyrase B ATPase activity
The source made the active and inactive calls. The rule behind the calls is not given here.
Parameter call: string, one of active, inactive

For orientation, consider the following solved cases.
| compound | subject_of_test | category_label |
| --- | --- | --- |
| Oc1cc(O)c2c(c1)O[C@H](c1cc(O)c(O)c(O)c1)[C@H](O)C2 [EPIGALLOCATECHIN] | Escherichia coli | active |
| O=C(O[C@@H]1Cc2c(O)cc(O)cc2O[C@@H]1c1ccc(O)c(O)c1)c1cc(O)c(O)c(O)c1 [EPICATECHIN GALLATE] | Escherichia coli | active |
| Oc1cc(O)c2c(c1)O[C@H](c1ccc(O)c(O)c1)[C@H](O)C2 [(-)-EPICATECHIN] | Escherichia coli | inactive |

Field: next compound
Query: I would be grateful if you could indicate the recorded call for O=C(O[C@@H]1Cc2c(O)cc(O)cc2O[C@@H]1c1cc(O)c(O)c(O)c1)c1cc(O)c(O)c(O)c1 [EPIGALOCATECHIN GALLATE] .
Response: active

* * *

For each record, write down the corresponding Kd.
Experiment: Displacement of fluorescent quercetin from Escherichia coli BL21 (DE3) recombinant DNA gyrase B G24
Answers are plain numbers, in µM.

| molecule | units_text | Kd |
| --- | --- | --- |
| O=C(O[C@@H]1Cc2c(O)cc(O)cc2O[C@@H]1c1cc(O)c(O)c(O)c1)c1cc(O)c(O)c(O)c1 [EPIGALOCATECHIN GALLATE] | µM | 23 |
| Oc1cc(O)c2c(c1)O[C@H](c1cc(O)c(O)c(O)c1)[C@H](O)C2 [EPIGALLOCATECHIN] | µM | 34 |
| O=c1c(O)c(-c2ccc(O)c(O)c2)oc2cc(O)cc(O)c12 | µM | 15 |
| O=C(O[C@@H]1Cc2c(O)cc(O)cc2O[C@@H]1c1ccc(O)c(O)c1)c1cc(O)c(O)c(O)c1 [EPICATECHIN GALLATE] | µM | 36 |

Moving on to the next molecule.
Query: Name the recorded Kd of the item Oc1cc(O)c2c(c1)O[C@H](c1ccc(O)c(O)c1)[C@H](O)C2 [(-)-EPICATECHIN] in your answer.
Response: 54
